Reference for the values: patent US9090632B2

testSystem: human mGluR5 (Homo sapiens, UniProt P41594)
Sequence (P41594 21-1180 isoform P41594-2 limits assumed): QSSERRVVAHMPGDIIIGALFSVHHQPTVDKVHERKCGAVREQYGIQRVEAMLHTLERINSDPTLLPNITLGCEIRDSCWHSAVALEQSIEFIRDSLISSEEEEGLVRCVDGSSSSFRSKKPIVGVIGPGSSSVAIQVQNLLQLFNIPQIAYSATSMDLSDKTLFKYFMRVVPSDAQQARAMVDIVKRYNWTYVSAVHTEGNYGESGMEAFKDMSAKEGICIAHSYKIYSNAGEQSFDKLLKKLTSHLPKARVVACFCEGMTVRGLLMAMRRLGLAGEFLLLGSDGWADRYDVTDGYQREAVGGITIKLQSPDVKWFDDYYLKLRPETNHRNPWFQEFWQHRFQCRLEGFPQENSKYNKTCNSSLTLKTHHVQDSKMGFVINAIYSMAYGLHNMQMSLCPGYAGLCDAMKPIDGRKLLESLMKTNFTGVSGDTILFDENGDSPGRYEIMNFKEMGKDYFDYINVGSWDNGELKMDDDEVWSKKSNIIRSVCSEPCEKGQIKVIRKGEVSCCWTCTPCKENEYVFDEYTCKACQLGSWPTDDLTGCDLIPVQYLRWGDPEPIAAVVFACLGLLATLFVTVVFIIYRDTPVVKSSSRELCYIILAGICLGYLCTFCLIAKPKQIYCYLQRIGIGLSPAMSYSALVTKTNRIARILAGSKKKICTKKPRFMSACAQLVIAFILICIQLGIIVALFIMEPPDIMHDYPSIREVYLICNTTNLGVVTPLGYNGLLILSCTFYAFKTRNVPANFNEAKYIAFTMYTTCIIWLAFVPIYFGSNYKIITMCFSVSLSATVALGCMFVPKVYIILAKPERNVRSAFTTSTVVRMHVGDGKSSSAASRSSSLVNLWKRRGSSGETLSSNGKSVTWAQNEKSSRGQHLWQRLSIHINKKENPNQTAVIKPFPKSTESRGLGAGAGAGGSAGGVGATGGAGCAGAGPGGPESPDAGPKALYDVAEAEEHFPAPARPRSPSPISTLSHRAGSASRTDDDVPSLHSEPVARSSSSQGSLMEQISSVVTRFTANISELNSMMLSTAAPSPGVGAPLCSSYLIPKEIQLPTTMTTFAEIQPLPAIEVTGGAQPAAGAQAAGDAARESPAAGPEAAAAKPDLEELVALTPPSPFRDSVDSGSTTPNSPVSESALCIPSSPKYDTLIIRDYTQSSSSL
protocolDescription: Cell-based functional Ca2+ mobilization assay, potentiation of glutamate EC20 response (H10H cell-line)
cond: H10H cell-line expressing recombinant human mGluR5; in presence of glutamate EC20; normalized to maximal glutamate response
The label depends only on Emax: true (1) if it is at least 60%, false (0) if it is smaller.

Example results:
>  <molecule>
O=C(c1n[nH]c2ccncc12)N1CCc2nc(COc3ccccc3)oc2C1 [Example B143]

>  <testSystem>
human mGluR5 (Homo sapiens, UniProt P41594)

>  <discreteLabel>
true (1)

$$$$
>  <molecule>
O=C(c1ccc(F)cc1)N1CCc2nc(COc3ccc(O)cc3)oc2C1 [Example B35]

>  <testSystem>
human mGluR5 (Homo sapiens, UniProt P41594)

>  <discreteLabel>
false (0)

$$$$

Then this molecule:
Q) hey, is Emax for this one >= 60%? O=C(CC(F)(F)F)N1CCc2nc(COc3ccccc3)oc2C1 [Example B116]
A) false (0)
